src = ChEMBL document CHEMBL4422648

Test system: Hepatitis C virus
Assay: Antiviral activity against HCV pseudo-particle infected in human HuH7 cells assessed as inhibition of HCV pseudo particles entry at 10 uM preincubated for 1 hr followed by viral infection and measured after 72 hrs by bright-glo luciferase reporter gene assay
Format: functional, organism-based
Settings: Hepacivirus hominis
Active and inactive are the calls of the source. The rule behind the calls is not given here.
Respond using exactly one of the listed classes: class 1 = active, class 0 = inactive

C#CCNC(=N)NCCCCCCNCCCCCCNC(=N)NCC#C    class 0

Query :: Which result was noted for this compound in the test: `C=CCNC(=O)NC(=N)NCCCN(C)CCCCN(C)CCCNC(=N)NC(=O)NCC=C`
Result :: class 0

Query :: Next compound: `C=CCNC(=O)NC(=N)NCCCCNC(=N)NC(=O)NCC=C`
Result :: class 0

Query :: What would you report for `C=CCNC(=O)NC(=N)NCCCCN` ?
Result :: class 0

Query :: Here is the next compound: `CO/C1=C\C(C)=C\[C@@H](C)[C@@H](O)[C@@H](C)C/C(C)=C/C=C/[C@H](OC)[C@@H]([C@@H](C)[C@@H](O)[C@H](C)[C@@]2(O)C[C@@H](O)[C@H](C)[C@@H](C(C)C)O2)OC1=O`
Result :: class 1

* * *

Test: Cytotoxicity against human Huh7-J20 cells infected with HCV JFH-1 after 72 hrs by WST-1 assay
Assay type: cell-based
experimental readout: CC50 at 72 h (µM)
Respond numerically; units are µM and should not be typed.

Query :: Value lookup for CC50 at 72 h; key = `C=CCNC(=O)NC(=N)NCCCNCCCCNCCCNC(=N)NC(=O)NCC=C`
Result :: 81.1
